Measured Cmax, listed per entry.
Set-up: species or system Beagle dogs
Conditions: dog, in vivo, po
Please reply with the bare figure in µg/mL and do not write the unit itself.

NC(=O)CN1C[C@@H](O)CC1=O [crystal form I] | 198

Q: What does the record list as Cmax for NC(=O)CN1C[C@@H](O)CC1=O [crystal form III] ?
Ans: 186
